# assay.remarks: BSK_SAg_SRB: Viability Assessment in the BioMAP Diversity Plus: SAg Assay (AID 2283096);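 note: cells read one day after compound addition; hits may be either gain or loss of signal compared with DMSO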
# experimental.setup: primary human HUVEC with PBMC
The source made the active and inactive calls. Rule for the calls: active = hit-call score of the fitted dose curve at least 0.9, where 1 is the maximum; inactive = score below 0.9.
API: response.call in active, inactive

Consider the worked cases shown below.
INSERT INTO assay_data (molecule, assigned_category) VALUES
  ('CCOP(=S)(OCC)OP(=S)(OCC)OCC', 'inactive'),
  ('CCOP(=O)(OCC)OC(=CCl)c1ccc(Cl)cc1Cl', 'inactive'),
  ('Clc1cccc(Cl)c1Cl', 'inactive'),
  ('c1ccc2sc(SNC3CCCCC3)nc2c1', 'inactive'),
  ('CC(C)O.CC(C)O.OCCN(CCO)CCO.OCCN(CCO)CCO.[Ti]', 'inactive');

-- ask Any idea what this test logged for "OCCN(CCO)CCO" ?
-- reply inactive

-- ask Could you kindly confirm the outcome this assay logged for "CCOP(=O)(OCC)SCCSCC" ?
-- reply inactive

-- ask Look up the recorded call for OC(Cc1ccccc1Cl)(Cn1cncn1)C1(Cl)CC1 (stereo not drawn) in this test.
-- reply inactive

-- ask // outcome(item) with item = "c1ccc(-c2cccc(-c3ccccc3)c2)cc1"
-- reply active

-- ask Recorded call for "Cc1c([N+](=O)[O-])c(C)c([N+](=O)[O-])c(C(C)(C)C)c1[N+](=O)[O-]" ?
-- reply inactive

-- ask Dear colleague, could you share the recorded outcome for "CCOP(=S)(OCC)SCS(=O)(=O)C(C)(C)C" when you have a moment?
-- reply inactive

-- ask Per the assay record, what outcome was assigned to C#CCOC(=O)/C=C(C)/C=C/CC(C)CCCC(C)C (stereo not drawn) ?
-- reply inactive

====

# system.under.test: human Thyroid Receptor alpha (THRa1), THRA (gene 7067)
# assay.remarks: ATG_THRa1_TRANS: Attagene TRANS-FACTORIAL HepG2 Assay for human Thyroid Receptor alpha (THRa1) (AID 2283014)
Records with an inconclusive call do not appear. Calls of active or inactive are those of the source. Rule for the calls: active = hit-call score of the fitted dose curve at least 0.9, where 1 is the maximum; inconclusive = response in the unintended direction; inactive = score below 0.9.
endpoint: outcome

INSERT INTO results (smi, result) VALUES
  ('CCOCn1c(-c2ccc(Cl)cc2)c(C#N)c(Br)c1C(F)(F)F', 'inactive'),
  ('COC(=O)Nc1cccc(OC(=O)Nc2cccc(C)c2)c1', 'inactive'),
  ('Cc1cc(C)cc(C)c1', 'inactive'),
  ('C=C(C)[C@@H]1CC=C(C=O)CC1', 'inactive');

-- ask Quick one: outcome for "Nc1c(Oc2ccccc2)cc(O)c2c1C(=O)c1ccccc1C2=O" ?
-- reply inactive

-- ask // outcome lookup, key: "CCOC(=O)c1ccccc1S(=O)(=O)NC(=O)Nc1nc(Cl)cc(OC)n1"
-- reply inactive

====

# system.under.test: Bile acid receptor (Homo sapiens) (UniProt Q96RI1)
# Sequence (Q96RI1 whole entry, looked up): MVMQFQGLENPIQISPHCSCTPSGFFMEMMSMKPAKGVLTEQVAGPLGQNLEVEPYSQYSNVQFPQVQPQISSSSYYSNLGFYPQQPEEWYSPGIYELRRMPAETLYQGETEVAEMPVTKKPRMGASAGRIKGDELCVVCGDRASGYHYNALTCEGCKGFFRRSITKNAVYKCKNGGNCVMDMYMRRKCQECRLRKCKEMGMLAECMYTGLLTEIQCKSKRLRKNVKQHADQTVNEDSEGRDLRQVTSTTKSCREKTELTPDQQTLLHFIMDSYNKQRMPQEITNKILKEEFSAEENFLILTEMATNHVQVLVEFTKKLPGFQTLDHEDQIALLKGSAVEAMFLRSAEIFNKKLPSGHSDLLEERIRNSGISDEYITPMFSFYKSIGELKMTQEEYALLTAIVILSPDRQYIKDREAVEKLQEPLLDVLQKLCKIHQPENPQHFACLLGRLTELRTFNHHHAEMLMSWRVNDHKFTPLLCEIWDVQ
# assay.remarks: OT_FXR_FXRSRC1_1440: Odyssey Thera (OT) 24-hour HEK293T Protein-Complementation Assay for Farnesoid X receptor/SRC-1 Co-activator (AID 2283384)
Records with an inconclusive call do not appear. Activity calls are given as the source filed them. Rule for the calls: active = hit-call score of the fitted dose curve at least 0.9, where 1 is the maximum; inconclusive = response in the unintended direction; inactive = score below 0.9.
// allowed return values: active, inactive

Field: example entries. Status: answers known.
INSERT INTO results (compound, system_under_test, assigned_category) VALUES
  ('O=C(NC(=O)c1c(F)cccc1F)Nc1ccc(Cl)cc1', 'Bile acid receptor (Homo sapiens) (UniProt Q96RI1)', 'inactive'),
  ('Cc1cc(Cl)ccc1O', 'Bile acid receptor (Homo sapiens) (UniProt Q96RI1)', 'inactive'),
  ('CCCCCCCCCCCCN(C)C', 'Bile acid receptor (Homo sapiens) (UniProt Q96RI1)', 'inactive'),
  ('CC(C)=CC1C(C(=O)OCc2cccc(Oc3ccccc3)c2)C1(C)C (stereo not drawn)', 'Bile acid receptor (Homo sapiens) (UniProt Q96RI1)', 'active'),
  ('CC1(C)[C@H](C(=O)O[C@H](C#N)c2cccc(Oc3ccccc3)c2)[C@@H]1/C=C(\Cl)C(F)(F)F', 'Bile acid receptor (Homo sapiens) (UniProt Q96RI1)', 'inactive'),
  ('Nc1ccc(N)cc1', 'Bile acid receptor (Homo sapiens) (UniProt Q96RI1)', 'inactive');

-- ask Recorded call for CCCSP(=S)(OCC)Oc1ccc(SC)cc1 (stereo not drawn) ?
-- reply inactive

-- ask Would you mind telling me which call this test gave "Cc1cc(Cl)ccc1OCCCC(=O)O" ?
-- reply inactive

-- ask What call does the record list for "COC(=O)Nc1cccc(OC(=O)Nc2cccc(C)c2)c1" ?
-- reply inactive

-- ask Outcome? O=C(NC(=O)c1c(F)cccc1F)Nc1cc(Cl)c(OC(F)(F)C(F)C(F)(F)F)cc1Cl (stereo not drawn)
-- reply active

-- ask Hi, sorry to bother you, what did the test record for "OCCCCO" ?
-- reply inactive

-- ask Kindly provide the recorded test outcome for the following compound: "O=S1(=O)OC(c2cc(Br)c(O)c(Br)c2)(c2cc(Br)c(O)c(Br)c2)c2ccccc21"
-- reply inactive

-- ask Given "CCOCn1c(-c2ccc(Cl)cc2)c(C#N)c(Br)c1C(F)(F)F" , state the outcome it received in this test.
-- reply active
